Source of measurements: the supplement of paper PMC11196671

For each record, write down the corresponding BHET released.
- Experiment Notes: BHET released, HPLC; higher = more BHET released; extreme values may be limits of the assay
- Condition Parameters: PET substrate: cryPow; 70 °C; pH 6.5; 24 h
Give just the number in mM; leave the unit off.

q: Which BHET released value is on record for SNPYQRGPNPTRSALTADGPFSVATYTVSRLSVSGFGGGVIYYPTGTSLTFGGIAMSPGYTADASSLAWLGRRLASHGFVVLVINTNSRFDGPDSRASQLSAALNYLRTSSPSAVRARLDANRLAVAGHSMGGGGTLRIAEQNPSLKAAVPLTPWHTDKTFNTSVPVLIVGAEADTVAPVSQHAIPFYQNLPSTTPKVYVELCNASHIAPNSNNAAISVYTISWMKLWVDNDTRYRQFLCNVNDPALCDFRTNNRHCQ [LCC-ICCG] ?
a: 0.0013

q: How about this sequence: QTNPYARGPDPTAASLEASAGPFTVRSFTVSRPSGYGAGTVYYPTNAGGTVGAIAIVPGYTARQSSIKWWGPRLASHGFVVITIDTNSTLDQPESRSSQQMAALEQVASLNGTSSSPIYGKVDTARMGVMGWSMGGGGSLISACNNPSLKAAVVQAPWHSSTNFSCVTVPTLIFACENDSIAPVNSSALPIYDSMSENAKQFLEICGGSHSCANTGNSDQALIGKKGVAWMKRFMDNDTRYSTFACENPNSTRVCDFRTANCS [Z1-PETase]
a: 0

---

- Experiment Notes: PET hydrolysis product formed (TPA+MHET+BHET, UV-Vis) per mg enzyme (mmol/mg enzyme); higher = more PET depolymerisation activity; extreme values may be limits of the assay
- Condition Parameters: PET substrate: aFilm; 60 °C; pH 4.5; 24 h
Exercise: state measured PET hydrolysis product formed for each of the sequences provided.
Reply with the value as a number alone.

q: Please report the recorded PET hydrolysis product formed for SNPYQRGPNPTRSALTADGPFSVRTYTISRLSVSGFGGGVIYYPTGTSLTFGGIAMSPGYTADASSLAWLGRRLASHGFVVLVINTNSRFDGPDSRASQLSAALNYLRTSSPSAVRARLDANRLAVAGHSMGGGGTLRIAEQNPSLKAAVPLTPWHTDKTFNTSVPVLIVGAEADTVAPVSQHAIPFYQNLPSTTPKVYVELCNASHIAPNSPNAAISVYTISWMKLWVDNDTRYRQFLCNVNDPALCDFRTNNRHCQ [LCC-ICCG RIP] .
a: 0.029

q: Entry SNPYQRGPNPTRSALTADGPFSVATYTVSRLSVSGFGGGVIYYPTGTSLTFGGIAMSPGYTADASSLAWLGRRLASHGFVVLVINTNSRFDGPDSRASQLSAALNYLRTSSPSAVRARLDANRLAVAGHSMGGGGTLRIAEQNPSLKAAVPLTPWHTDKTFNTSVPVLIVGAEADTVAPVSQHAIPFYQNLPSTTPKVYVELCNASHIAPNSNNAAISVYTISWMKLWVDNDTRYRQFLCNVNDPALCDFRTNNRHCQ [LCC-ICCG] please
a: 0.00176

q: And what about the sequence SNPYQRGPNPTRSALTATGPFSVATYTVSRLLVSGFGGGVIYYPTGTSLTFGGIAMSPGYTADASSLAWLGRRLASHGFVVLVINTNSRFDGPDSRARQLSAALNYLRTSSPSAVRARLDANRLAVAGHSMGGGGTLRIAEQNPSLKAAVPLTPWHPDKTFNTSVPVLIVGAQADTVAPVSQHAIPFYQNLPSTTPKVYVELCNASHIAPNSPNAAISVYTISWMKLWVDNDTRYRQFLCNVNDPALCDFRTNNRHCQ [LCC-ICCG I6M] ?
a: 0.0326

q: Here is the next sequence: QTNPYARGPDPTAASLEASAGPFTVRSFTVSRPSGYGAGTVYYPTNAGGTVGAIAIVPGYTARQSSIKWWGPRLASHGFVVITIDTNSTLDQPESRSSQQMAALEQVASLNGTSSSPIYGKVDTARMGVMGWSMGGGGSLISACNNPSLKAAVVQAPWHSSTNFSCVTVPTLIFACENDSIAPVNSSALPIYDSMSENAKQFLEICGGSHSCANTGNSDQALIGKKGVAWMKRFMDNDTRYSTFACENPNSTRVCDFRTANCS [Z1-PETase]
a: 0
